- tested system: T1, full-length human GIPR (GenBank NM_000164) with an N-terminal FLAG tag on HEK-293T cells (human), P48546
- T1 chain: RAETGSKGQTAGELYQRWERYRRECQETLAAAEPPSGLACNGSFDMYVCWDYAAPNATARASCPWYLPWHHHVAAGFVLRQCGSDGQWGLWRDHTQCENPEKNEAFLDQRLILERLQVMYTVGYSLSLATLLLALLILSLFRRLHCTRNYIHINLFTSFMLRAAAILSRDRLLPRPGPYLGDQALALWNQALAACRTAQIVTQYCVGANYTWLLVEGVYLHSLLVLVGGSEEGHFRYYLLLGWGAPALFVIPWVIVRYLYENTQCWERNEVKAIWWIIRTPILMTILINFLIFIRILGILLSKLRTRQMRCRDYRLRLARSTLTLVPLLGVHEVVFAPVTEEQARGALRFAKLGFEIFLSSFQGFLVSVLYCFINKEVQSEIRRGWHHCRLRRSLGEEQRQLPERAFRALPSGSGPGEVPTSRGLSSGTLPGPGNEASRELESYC
- test: cell-based or functional assay
Numbered stars: 1 amine (or outer) side, 2 acyl side, 3 side chain; on linkers, the order of the positions; unused ones are H or OH. Square brackets hold non-standard residues; d marks the D form. Primed or numbered codes have the meaning given here. Side chains are listed from the residue outwards. Ends that are not written are not given here. * marks the point of attachment. C20 diacid = O=C(O)CCCCCCCCCCCCCCCCCCC(=O)*; C18 diacid = O=C(O)CCCCCCCCCCCCCCCCC(=O)*; γGlu = O=C(O)[C@H](CCC(=O)[*:2])N[*:1]; Iva = CC[C@](C)(N)C(=O)O; PEG3′ = not defined here; Abu = CC[C@H](N)C(=O)O; Aib = CC(C)(N)C(=O)O
API: label(entry) gives yes (1) if the entry's GIP EC50(pM) is strictly smaller than 0.8 pM; on equality or larger values it gives no (0).

These recorded examples may help you get a feel for the data.
binder | discrete label
Y[Aib]EGTFISDYSIALDR[Aib]HQ[Aib]NFVNW[Iva]LAQRPSSGAPPK([Abu-γGlu-C18 diacid])S (ends and bridges not checked) [Compound No. 544] | no (0)
Y[Aib]EGTFISDYSIALDR[Aib]HQ[Aib]NFVNW[Iva]LAQRPSSGAPPPK([PEG3′-PEG3′-γGlu-C20 diacid]) (ends and bridges not checked) [Compound No. 481] | yes (1)

Continue with the next binder.
Say whether its GIP EC50(pM) is strictly beneath 0.8 pM. Entry: Y[Aib]EGTFISDYSIALDR[Aib]HQ[Aib]NFVNW[Iva]LAQRPSK([PEG3′-PEG3′-γGlu-C20 diacid])GAPPPS (ends and bridges not checked) [Compound No. 493]
no (0)
